Recorded self-cleavage for the following variants
B1: HDV Ribozyme (parent)
chain: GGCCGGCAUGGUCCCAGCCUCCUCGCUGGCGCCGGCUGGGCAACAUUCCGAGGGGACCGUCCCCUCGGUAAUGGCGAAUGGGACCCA

Variants of: B1
Assay: self-cleavage, relative activity (ratio to wild type); higher = more cleavage; co-transcriptional

residue.sequence | self-cleavage
GGCCGGCAUGGGCCCAGCCUCCUCGGUGGCGCCGGCUGGGCAACAUUCCGAGGGGACCGUCCCCUCGGUAAUGGCGAAUGGGACCCA [U12G C26G] | 1.08
GGCCGGCAUGGUCCCAGCCCCCUCACUGGCGCCGGCUGGGCAACAUUCCGAGGGGACCGUCCCCUCGGUAAUGGCGAAUGGGACCCA [U20C G25A] | 0.458
GACCGGCAUGGUCCCAGCCUCCUCGCUGGUGCCGGCUGGGCAACAUUCCGAGGGGACCGUCCCCUCGGUAAUGGCGAAUGGGACCCA [G2A C30U] | 0.0639
GGCCGGCAUGGUCCCAGCCUCCUCGCUGGCGCCGGCUGGGCAACAUUCCGAGGGGAUCGUCCCCUCGGUAAUGGCGAAUCGGACCCA [C57U G80C] | 0.145
